Recorded pKd values for a group of binders are listed next.
# target: T1, Rb^P M695I (human, UniProt P06400 380-788, M695I)
# T1 construct: also called variant 61
# T1 sequence (looked up): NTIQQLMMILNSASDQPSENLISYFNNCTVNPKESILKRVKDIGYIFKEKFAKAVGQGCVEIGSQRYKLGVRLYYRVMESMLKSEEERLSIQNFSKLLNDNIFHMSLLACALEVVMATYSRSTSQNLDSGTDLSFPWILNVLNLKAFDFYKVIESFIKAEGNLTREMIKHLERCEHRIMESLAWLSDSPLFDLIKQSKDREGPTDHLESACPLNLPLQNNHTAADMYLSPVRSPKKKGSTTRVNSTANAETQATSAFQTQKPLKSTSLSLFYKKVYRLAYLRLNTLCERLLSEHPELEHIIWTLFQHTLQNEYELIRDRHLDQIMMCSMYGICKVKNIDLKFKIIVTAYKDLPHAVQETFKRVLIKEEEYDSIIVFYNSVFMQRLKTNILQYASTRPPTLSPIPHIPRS
# procedure details: fluorescence polarisation; 37 °C, after the 25 °C reading ramped over 7 min to 37 °C and 2 min incubation; unlabeled Rb^P against 1.5 nM TMR-E2F1^TD or 7.5 nM TMR-E7^LxCxE; 25 mM Tris pH 8.0, 200 mM NaCl, 1 mM DTT, 0.1% Tween-20; apparent Kd
# condition notes: both partners purified
pKd: −log10 of the molar value. No end group written: not given here. TMR = tetramethyl rhodamine dye

binder	pKd
DLYCYEQLN (also: TMR label, position not given here, source: synthetic peptide, bought: GenScript) [TMR-E7^LxCxE, LxCxE peptide of the E7 oncoprotein from HPV]	7.03
{TMR}-GEGIRDLFDCDFGDLTPLD (also called E2F^TD; source: synthetic peptide, bought: GenScript) [TMR-E2F1^TD, peptide of the E2F1 transactivation domain]	6.78
